# testDetails: Hygroscopicity study by dynamic vapor sorption (DVS)
# Assay type: physicochemical
# conditionsUsed: DVS, 80% RH
quantityName: Weight gain under 80% Relative Humidity (%)

Solved cases (3 shown):
# compound, unitsSymbol, Weight gain under 80% Relative Humidity
data = [
    ("CCCCCCCCCCCCCCCCCCCC(=O)N[C@H]1CC[C@@]2(C)[C@@H](C1)C[C@@H](O)[C@@H]1[C@@H]2C[C@H](O)[C@]2(C)[C@@H]([C@H](C)CCC(=O)O)CC[C@@H]12 [Solid disclosed in CN100386339C, reference compound]", "%", 2.44),
    ("CCCCCCCCCCCCCCCCCCCC(=O)N[C@H]1CC[C@@]2(C)[C@@H](C1)C[C@@H](O)[C@@H]1[C@@H]2C[C@H](O)[C@]2(C)[C@@H]([C@H](C)CCC(=O)O)CC[C@@H]12 [Form CS8]", "%", 0.40),
    ("CCCCCCCCCCCCCCCCCCCC(=O)N[C@H]1CC[C@@]2(C)[C@@H](C1)C[C@@H](O)[C@@H]1[C@@H]2C[C@H](O)[C@]2(C)[C@@H]([C@H](C)CCC(=O)O)CC[C@@H]12 [Form CS5]", "%", 0.35),
]

P = CCCCCCCCCCCCCCCCCCCC(=O)N[C@H]1CC[C@@]2(C)[C@@H](C1)C[C@@H](O)[C@@H]1[C@@H]2C[C@H](O)[C@]2(C)[C@@H]([C@H](C)CCC(=O)O)CC[C@@H]12 [Form CS2]
Q = CCCCCCCCCCCCCCCCCCCC(=O)N[C@H]1CC[C@@]2(C)[C@@H](C1)C[C@@H](O)[C@@H]1[C@@H]2C[C@H](O)[C@]2(C)[C@@H]([C@H](C)CCC(=O)O)CC[C@@H]12 [Form CS3]
IN: Min Weight gain under 80% Relative Humidity? P | Q I would appreciate it if you answered with the label of your choice.
OUT: Q

---

# testDetails: Hygroscopicity study by dynamic vapor sorption (DVS)
# Format: physicochemical
# conditionsUsed: after DVS test
quantityName: Form change before and after DVS test (XRPD)

# compound, valueReported
data = [
    ("CCCCCCCCCCCCCCCCCCCC(=O)N[C@H]1CC[C@@]2(C)[C@@H](C1)C[C@@H](O)[C@@H]1[C@@H]2C[C@H](O)[C@]2(C)[C@@H]([C@H](C)CCC(=O)O)CC[C@@H]12 [Form CS5]", "No form change"),
    ("CCCCCCCCCCCCCCCCCCCC(=O)N[C@H]1CC[C@@]2(C)[C@@H](C1)C[C@@H](O)[C@@H]1[C@@H]2C[C@H](O)[C@]2(C)[C@@H]([C@H](C)CCC(=O)O)CC[C@@H]12 [Form CS2]", "No form change"),
    ("CCCCCCCCCCCCCCCCCCCC(=O)N[C@H]1CC[C@@]2(C)[C@@H](C1)C[C@@H](O)[C@@H]1[C@@H]2C[C@H](O)[C@]2(C)[C@@H]([C@H](C)CCC(=O)O)CC[C@@H]12 [Form CS8]", "No form change"),
]
